Values from patent US20110158985A1

molecular target: Bac-F (respiratory syncytial virus); experiment: SPR (BIAcore), mAb vs Bac-F (1:1)
Sequence (P03420 26-524): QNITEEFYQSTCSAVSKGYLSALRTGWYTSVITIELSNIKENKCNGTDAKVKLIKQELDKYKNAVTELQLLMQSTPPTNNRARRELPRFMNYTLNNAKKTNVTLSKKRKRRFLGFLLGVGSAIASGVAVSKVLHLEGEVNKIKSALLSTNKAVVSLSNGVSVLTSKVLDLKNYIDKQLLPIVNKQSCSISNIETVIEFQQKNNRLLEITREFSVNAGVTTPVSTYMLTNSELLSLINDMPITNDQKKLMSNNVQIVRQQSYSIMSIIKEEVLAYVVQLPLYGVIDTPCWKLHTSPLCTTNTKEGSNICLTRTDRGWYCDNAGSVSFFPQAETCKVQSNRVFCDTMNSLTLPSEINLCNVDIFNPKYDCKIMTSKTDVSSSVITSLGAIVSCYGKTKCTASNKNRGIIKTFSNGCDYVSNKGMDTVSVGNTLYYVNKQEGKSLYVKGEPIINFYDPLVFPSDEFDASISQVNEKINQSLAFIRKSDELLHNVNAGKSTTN
Overview of reported fold in parentheses (palivizumab = 1) across a group of binders:
Please respond with the number in fold and leave the unit unwritten.

Known fold in parentheses (palivizumab = 1) results, listed for orientation:
A13c4 IgG (antibody, V domains shown) VH: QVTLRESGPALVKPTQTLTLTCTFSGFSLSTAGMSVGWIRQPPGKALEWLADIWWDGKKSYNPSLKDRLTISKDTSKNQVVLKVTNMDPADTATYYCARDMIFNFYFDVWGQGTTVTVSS VL: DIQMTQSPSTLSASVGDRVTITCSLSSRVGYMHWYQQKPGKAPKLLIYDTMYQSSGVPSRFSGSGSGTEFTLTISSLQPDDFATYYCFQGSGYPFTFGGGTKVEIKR :: 30
P11d4 IgG (antibody, V domains shown) VH: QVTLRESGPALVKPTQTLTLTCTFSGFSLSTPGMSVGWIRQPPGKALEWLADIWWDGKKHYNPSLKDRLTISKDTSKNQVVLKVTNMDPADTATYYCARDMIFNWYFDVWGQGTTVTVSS VL: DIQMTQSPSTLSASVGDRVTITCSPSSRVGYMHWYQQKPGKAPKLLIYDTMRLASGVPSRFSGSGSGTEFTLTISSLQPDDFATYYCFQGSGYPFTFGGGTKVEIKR :: 6
A17d4(1) IgG (antibody, V domains shown) VH: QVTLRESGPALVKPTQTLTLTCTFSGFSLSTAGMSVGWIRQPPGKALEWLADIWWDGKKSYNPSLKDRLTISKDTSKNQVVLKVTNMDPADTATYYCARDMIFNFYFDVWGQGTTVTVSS VL: DIQMTQSPSTLSASVGDRVTITCLPSSRVGYMHWYQQKPGKAPKLLIYDTMYQSSGVPSRFSGSGSGTEFTLTISSLQPDDFATYYCFQGSGYPFTFGGGTKVEIKR :: 43
A1e9 IgG (antibody, V domains shown, also called Ale9) VH: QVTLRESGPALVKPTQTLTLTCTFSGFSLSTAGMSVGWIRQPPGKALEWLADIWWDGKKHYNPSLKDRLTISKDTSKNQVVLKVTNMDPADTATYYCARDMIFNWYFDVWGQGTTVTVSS VL: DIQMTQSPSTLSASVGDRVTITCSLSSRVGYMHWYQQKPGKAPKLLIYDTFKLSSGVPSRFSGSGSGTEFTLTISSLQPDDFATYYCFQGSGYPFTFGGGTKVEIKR :: 12

Query: fold in parentheses (palivizumab = 1); subject: A8c7 IgG (antibody, V domains shown) VH: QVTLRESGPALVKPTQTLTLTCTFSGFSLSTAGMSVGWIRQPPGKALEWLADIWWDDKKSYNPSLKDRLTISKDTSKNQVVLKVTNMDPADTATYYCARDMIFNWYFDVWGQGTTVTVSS VL: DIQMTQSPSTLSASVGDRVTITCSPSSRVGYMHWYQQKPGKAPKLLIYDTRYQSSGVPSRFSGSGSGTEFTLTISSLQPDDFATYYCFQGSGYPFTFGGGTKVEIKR 19
